assay: Plasma toxicokinetics after single intravenous administration in mice; type: in vivo, B6C3F1/N mice; conditions: male, B6C3F1/N, mouse, iv, 34 mg/kg, Alpha half-life, free BPAF, male mice, 34 mg/kg IV, mean (SE)

# sample-smiles, result-units, half-life
measured = [
    ("Oc1ccc(C(c2ccc(O)cc2)(C(F)(F)F)C(F)(F)F)cc1", "min", 34),
]

----------
test: Plasma toxicokinetics after single gavage administration in rats; type: in vivo, Harlan Sprague Dawley rats; conditions: female, Hsd:Sprague Dawley SD, rat, plasma, po, 34 mg/kg, Beta Half-life, free BPAF; female rats; 34 mg/kg gavage; plasma; mean (SE)
assay-endpoint: half-life (h)

# molecule, result-units, value-measured
measured = [
    ("Oc1ccc(C(c2ccc(O)cc2)(C(F)(F)F)C(F)(F)F)cc1 [BPAF, Bisphenol AF]", "h", 8.68),
]

----------
assay: Plasma toxicokinetics after single gavage administration in rats; type: in vivo, Harlan Sprague Dawley rats; conditions: male, Hsd:Sprague Dawley SD, rat, plasma, po

# compound, Tmax
data = [
    ("Oc1ccc(C(c2ccc(O)cc2)(C(F)(F)F)C(F)(F)F)cc1 [BPAF, Bisphenol AF]", "0.812 to 2.3 h"),
]

----------
assay: Plasma toxicokinetics after single gavage administration in rats; type: in vivo, Harlan Sprague Dawley rats; details: female, Hsd:Sprague Dawley SD, rat, plasma, po, 110 mg/kg
assay-endpoint: AUC(0-inf)

# sample-smiles, assay-endpoint, value-measured
data = [
    ("Oc1ccc(C(c2ccc(O)cc2)(C(F)(F)F)C(F)(F)F)cc1", "AUC(0-inf)", "1470 ng·h/mL"),
]

----------
assay: Plasma toxicokinetics after single gavage administration in mice; format: in vivo, B6C3F1/N mice; settings: female, B6C3F1/N, mouse, plasma, po, 34 mg/kg, Alpha Half-life, free BPAF; female mice; 34 mg/kg gavage; mean (SE)

# sample-smiles, half-life (min)
rows = [
    ("Oc1ccc(C(c2ccc(O)cc2)(C(F)(F)F)C(F)(F)F)cc1", 12.5),
]

----------
assay: Plasma toxicokinetics after single intravenous administration in rats; assay type: in vivo, Harlan Sprague Dawley rats; details: male, Hsd:Sprague Dawley SD, rat, iv, 34 mg/kg
assay-endpoint: AUC(0-inf) (ng·h/mL)

# sample-smiles, result-units, value-measured
data = [
    ("Oc1ccc(C(c2ccc(O)cc2)(C(F)(F)F)C(F)(F)F)cc1", "ng·h/mL", 45200),
]

----------
assay: Plasma toxicokinetics after single gavage administration in rats; assay type: in vivo, Harlan Sprague Dawley rats; conditions: female, Hsd:Sprague Dawley SD, rat, plasma, po
assay-endpoint: Tmax

# sample-smiles, value-measured
records = [
    ("Oc1ccc(C(c2ccc(O)cc2)(C(F)(F)F)C(F)(F)F)cc1", "0.767 to 1.34 h"),
]

----------
assay: Plasma toxicokinetics after single gavage administration in mice; type: in vivo, B6C3F1/N mice; conditions: male, B6C3F1/N, mouse, plasma, po, 34 mg/kg, K10 Half-Life, free BPAF; male mice; 34 mg/kg gavage; mean (SE)
assay-endpoint: half-life (h)

# sample-smiles, value-measured
rows = [
    ("Oc1ccc(C(c2ccc(O)cc2)(C(F)(F)F)C(F)(F)F)cc1", 4.22),
]

----------
test: Plasma toxicokinetics after single gavage administration in mice; type: in vivo, B6C3F1/N mice; conditions: male, B6C3F1/N, mouse, plasma, po, 34 mg/kg, Alpha Half-life, free BPAF; male mice; 34 mg/kg gavage; mean (SE)
assay-endpoint: half-life (h)

# sample-smiles, assay-endpoint, value-measured
data = [
    ("Oc1ccc(C(c2ccc(O)cc2)(C(F)(F)F)C(F)(F)F)cc1", "half-life", 1.67),
]

src = paper PMC7178755
